# ASSAYED_SYSTEM: T1, human neuropeptide Y2 receptor (human, UniProt P49146 1-381)
# T1 sequence (looked up): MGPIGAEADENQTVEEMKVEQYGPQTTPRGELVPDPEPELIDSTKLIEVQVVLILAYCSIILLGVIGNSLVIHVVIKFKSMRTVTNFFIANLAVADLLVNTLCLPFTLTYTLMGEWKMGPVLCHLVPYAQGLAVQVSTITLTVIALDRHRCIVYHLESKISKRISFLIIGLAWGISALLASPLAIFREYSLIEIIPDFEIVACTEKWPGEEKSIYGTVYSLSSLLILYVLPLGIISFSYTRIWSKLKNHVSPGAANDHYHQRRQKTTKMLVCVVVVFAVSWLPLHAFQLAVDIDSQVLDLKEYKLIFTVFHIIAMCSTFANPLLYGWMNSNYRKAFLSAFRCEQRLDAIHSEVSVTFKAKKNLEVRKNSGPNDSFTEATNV
# METHOD_DESCRIPTION: cell-based or functional assay
*1 amine or outer side, *2 acyl side, *3 side chain or, on linkers, in order; H or OH if unused. Where no end group is shown, it is not given here. Side-chain parts run from the residue outwards. [ ]: non-standard residue; d: D form. The star is where a group is joined. C18 diacid = O=C(O)CCCCCCCCCCCCCCCCC(=O)*; γGlu = O=C(O)[C@H](CCC(=O)[*:2])N[*:1]; εLys = N[C@@H](CCCCN[*:1])C(=O)[*:2]; Aib = CC(C)(N)C(=O)O

BINDER: YXEGTFTSDYSIXLEGQAQXAFVRHLINKXTRQRY (Aib at 2, 13, 20, 30; Lys29 epsilon-amino: C18DA-gGlu-gGlu-gGlu-gGlu-gGlu-gGlu-eLys; C-terminal amide) [Compound 95]
UNIT_NAME: µM
EC50, CreLuc reporter, 0.5% hP: 0.058
--
BINDER: YXEGTFTSDYSIXLEKQAQXAFVRHLLNKXTRQRY (Aib at 2, 13, 20, 30; Lys29 epsilon-amino: C18DA-gGlu-gGlu-gGlu-gGlu-gGlu-gGlu-eLys; C-terminal amide) [Compound 107]
UNIT_NAME: µM
EC50, CreLuc reporter, 0.5% hP: 0.0133
--
BINDER: Y[Aib]EGTFTSDYSI[Aib]LEKQAQ[Aib]AFVRHLINK([γGlu-γGlu-γGlu-εLys-γGlu-γGlu-γGlu-C18 diacid])[Aib]TRQRY-NH2 [Compound 168]
UNIT_NAME: µM
EC50, CreLuc reporter, 0.5% hP: 0.0277
--
BINDER: YXEGTFTSDYSIXLEAQAQXAFVRHLINKXTRQRY (Aib at 2, 13, 20, 30; Lys29 epsilon-amino: C18DA-gGlu-gGlu-gGlu-gGlu-gGlu-gGlu-eLys; C-terminal amide) [Compound 123]
UNIT_NAME: µM
EC50, CreLuc reporter, 0.5% hP: 0.0516
--
BINDER: YXEGTFTSDYSIELEKQAQXAFVRHLINKXTRQRY (Aib at 2, 20, 30; Lys29 epsilon-amino: C18DA-gGlu-gGlu-gGlu-gGlu-gGlu-gGlu-eLys; C-terminal amide) [Compound 160]
UNIT_NAME: µM
EC50, CreLuc reporter, 0.5% hP: 0.0155
--
BINDER: Y[Aib]EGTFTSDYSI[Aib]LEKQAQ[Aib]AFVRHLINK([εLys-γGlu-γGlu-γGlu-γGlu-γGlu-γGlu-γGlu-C18 diacid])[Aib]TRQRY-NH2 [Compound 121]
UNIT_NAME: µM
EC50, CreLuc reporter, 0.5% hP: 0.0138
